Values from paper PMC6152678

# TGT: UGT1A8 (Homo sapiens, UniProt Q9HAW9)
# Construct: purchased BD Gentest Corp. (Woburn, MA, USA); host or cells: baculovirus-infected insect cells
# Sequence (Q9HAW9 26-530): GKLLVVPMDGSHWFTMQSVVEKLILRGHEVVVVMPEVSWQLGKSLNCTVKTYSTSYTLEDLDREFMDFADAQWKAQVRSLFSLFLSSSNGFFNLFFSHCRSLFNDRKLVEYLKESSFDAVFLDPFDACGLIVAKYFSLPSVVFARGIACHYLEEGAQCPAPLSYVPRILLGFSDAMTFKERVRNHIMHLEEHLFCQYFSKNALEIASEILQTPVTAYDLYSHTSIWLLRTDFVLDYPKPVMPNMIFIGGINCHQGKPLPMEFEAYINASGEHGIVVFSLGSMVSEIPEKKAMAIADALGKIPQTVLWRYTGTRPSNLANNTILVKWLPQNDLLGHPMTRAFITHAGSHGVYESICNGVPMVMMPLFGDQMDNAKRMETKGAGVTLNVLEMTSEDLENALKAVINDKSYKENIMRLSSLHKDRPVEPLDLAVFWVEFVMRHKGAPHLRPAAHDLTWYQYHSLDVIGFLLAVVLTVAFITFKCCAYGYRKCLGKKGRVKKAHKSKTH
# EXPERIMENTAL_PROTOCOL: Inhibition of recombinant UGT-catalyzed 4-MU glucuronidation
# Type: biochemical
# CONDITION: pH 7.4, probe 4-methylumbelliferone (4-MU), 750 μM, 100 μM compound, 4-MU probe substrate, negative = activation
ASSAY_READOUT: inhibition at 30 min, 100 µM (%)
Express your answer in %, writing the number without its unit.

O=c1c2cc(O)c(O)cc2oc2cc(O)c([C@@H]3O[C@H](CO)[C@@H](O)[C@H](O)[C@H]3O)c(O)c12    -70.9

Could you now consider this next compound?
Query: Return reported inhibition at 30 min, 100 µM. Input compound: O=c1c2cc(O)c(O)cc2oc2cc(O)cc(O)c12 [NTR, 1,3,6,7-tetrahydroxyxanthone]
Result: 57

====

# TGT: UGT2B17 (Homo sapiens, UniProt O75795)
# Construct: purchased BD Gentest Corp. (Woburn, MA, USA); host or cells: baculovirus-infected insect cells
# Sequence (O75795 24-530): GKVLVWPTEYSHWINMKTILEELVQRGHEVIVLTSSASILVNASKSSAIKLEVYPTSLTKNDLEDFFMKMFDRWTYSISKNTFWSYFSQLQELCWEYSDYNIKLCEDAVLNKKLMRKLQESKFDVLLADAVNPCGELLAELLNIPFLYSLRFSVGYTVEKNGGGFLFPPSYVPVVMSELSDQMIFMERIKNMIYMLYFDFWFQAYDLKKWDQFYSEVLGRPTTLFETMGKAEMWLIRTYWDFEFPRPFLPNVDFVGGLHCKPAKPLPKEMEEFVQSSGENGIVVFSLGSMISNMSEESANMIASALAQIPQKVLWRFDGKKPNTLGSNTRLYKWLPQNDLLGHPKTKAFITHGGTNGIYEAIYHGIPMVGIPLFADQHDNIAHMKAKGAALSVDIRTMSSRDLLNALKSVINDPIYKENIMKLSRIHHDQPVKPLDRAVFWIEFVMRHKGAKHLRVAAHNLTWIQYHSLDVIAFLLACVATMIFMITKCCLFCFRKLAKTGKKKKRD
# EXPERIMENTAL_PROTOCOL: Inhibition of recombinant UGT-catalyzed 4-MU glucuronidation
# Type: biochemical
# CONDITION: pH 7.4, probe 4-methylumbelliferone (4-MU), 2000 μM, 100 μM compound, 4-MU probe substrate, negative = activation
ASSAY_READOUT: inhibition at 120 min, 100 µM

O=c1c2cc(O)c(O)cc2oc2cc(O)c([C@@H]3O[C@H](CO)[C@@H](O)[C@H](O)[C@H]3O)c(O)c12 [MGF]    -106%

Query: Provide one value: measured inhibition at 120 min, 100 µM of O=c1c2cc(O)c(O)cc2oc2cc(O)cc(O)c12 [NTR, 1,3,6,7-tetrahydroxyxanthone]
Result: 48.6%

====

# TGT: UGT1A10 (Homo sapiens, UniProt Q9HAW8)
# Construct: purchased BD Gentest Corp. (Woburn, MA, USA); host or cells: baculovirus-infected insect cells
# Sequence (Q9HAW8 26-530): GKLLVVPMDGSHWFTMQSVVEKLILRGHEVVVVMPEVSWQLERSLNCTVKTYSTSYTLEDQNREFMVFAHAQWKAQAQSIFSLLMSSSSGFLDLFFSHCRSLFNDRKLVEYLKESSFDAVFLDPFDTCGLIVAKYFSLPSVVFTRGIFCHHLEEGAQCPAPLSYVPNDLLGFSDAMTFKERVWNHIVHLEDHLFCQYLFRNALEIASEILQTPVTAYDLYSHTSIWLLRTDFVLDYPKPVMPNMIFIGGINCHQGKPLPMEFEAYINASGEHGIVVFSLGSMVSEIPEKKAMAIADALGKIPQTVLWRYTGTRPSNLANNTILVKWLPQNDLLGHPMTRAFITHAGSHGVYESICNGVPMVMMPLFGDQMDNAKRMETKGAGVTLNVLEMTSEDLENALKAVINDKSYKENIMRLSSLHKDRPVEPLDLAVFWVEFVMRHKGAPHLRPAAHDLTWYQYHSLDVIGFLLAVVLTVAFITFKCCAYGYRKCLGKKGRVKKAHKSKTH
# EXPERIMENTAL_PROTOCOL: Inhibition of recombinant UGT-catalyzed 4-MU glucuronidation
# Format: biochemical
# CONDITION: pH 7.4, probe 4-methylumbelliferone (4-MU), 30 μM, 100 μM compound, 4-MU probe substrate, negative = activation
# Description: Sigma-Aldrich (St Louis, MO, USA) provided the following constituents in the incubation mixture: 4-methylumbelliferone (4-MU), 4-methylumbelliferone-β-D-glucuronide (4-MUG), Tris-HCl, 7-hydroxycoumarin, and uridine-diphosphoglucuronic acid (UDPGA) (trisodium salt). […] The inhibition type and Kinetics were determined for the inhibition of NTR towards UGT1A3, UGT1A7 and UGT1A9. The glucuronidation velocity of 4-MU was determined at multiple concentrations of 4-MU and NTR. […]
ASSAY_READOUT: inhibition at 120 min, 100 µM

O=c1c2cc(O)c(O)cc2oc2cc(O)cc(O)c12 [NTR, 1,3,6,7-tetrahydroxyxanthone]    -272%

# evaluate next
Query: State measured inhibition at 120 min, 100 µM of the compound O=c1c2cc(O)c(O)cc2oc2cc(O)c([C@@H]3O[C@H](CO)[C@@H](O)[C@H](O)[C@H]3O)c(O)c12 with UGT1A10 (Homo sapiens, UniProt Q9HAW8).
Result: -86.4%

====

# TGT: UGT2B4 (Homo sapiens, UniProt P06133)
# Construct: purchased BD Gentest Corp. (Woburn, MA, USA); host or cells: baculovirus-infected insect cells
# Sequence (P06133 24-528): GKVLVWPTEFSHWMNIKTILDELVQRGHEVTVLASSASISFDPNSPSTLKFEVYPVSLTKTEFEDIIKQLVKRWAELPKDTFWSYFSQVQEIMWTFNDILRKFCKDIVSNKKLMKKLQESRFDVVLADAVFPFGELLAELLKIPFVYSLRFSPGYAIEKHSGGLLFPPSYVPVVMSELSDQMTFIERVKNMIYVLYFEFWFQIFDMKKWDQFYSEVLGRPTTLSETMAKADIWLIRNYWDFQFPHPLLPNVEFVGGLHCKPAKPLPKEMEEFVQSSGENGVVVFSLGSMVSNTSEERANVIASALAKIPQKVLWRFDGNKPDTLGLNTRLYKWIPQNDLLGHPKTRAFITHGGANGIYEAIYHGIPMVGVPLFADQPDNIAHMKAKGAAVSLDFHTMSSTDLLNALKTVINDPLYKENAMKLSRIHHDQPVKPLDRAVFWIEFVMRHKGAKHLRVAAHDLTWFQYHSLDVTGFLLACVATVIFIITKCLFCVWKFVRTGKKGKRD
# EXPERIMENTAL_PROTOCOL: Inhibition of recombinant UGT-catalyzed 4-MU glucuronidation
# Type: biochemical
# CONDITION: pH 7.4, probe 4-methylumbelliferone (4-MU), 1000 μM, 100 μM compound, 4-MU probe substrate, negative = activation
Recorded inhibition at 120 min, 100 µM by entry
Give just the number in %; leave the unit off.

O=c1c2cc(O)c(O)cc2oc2cc(O)cc(O)c12 [NTR, 1,3,6,7-tetrahydroxyxanthone]    -5.5

Attention now turns to another entry.
Query: Tell us which inhibition at 120 min, 100 µM value is on record for O=c1c2cc(O)c(O)cc2oc2cc(O)c([C@@H]3O[C@H](CO)[C@@H](O)[C@H](O)[C@H]3O)c(O)c12 [MGF]
Result: -61.9

====

# TGT: UGT1A6 (Homo sapiens, UniProt P19224)
# Construct: purchased BD Gentest Corp. (Woburn, MA, USA); host or cells: baculovirus-infected insect cells
# Sequence (P19224 27-532): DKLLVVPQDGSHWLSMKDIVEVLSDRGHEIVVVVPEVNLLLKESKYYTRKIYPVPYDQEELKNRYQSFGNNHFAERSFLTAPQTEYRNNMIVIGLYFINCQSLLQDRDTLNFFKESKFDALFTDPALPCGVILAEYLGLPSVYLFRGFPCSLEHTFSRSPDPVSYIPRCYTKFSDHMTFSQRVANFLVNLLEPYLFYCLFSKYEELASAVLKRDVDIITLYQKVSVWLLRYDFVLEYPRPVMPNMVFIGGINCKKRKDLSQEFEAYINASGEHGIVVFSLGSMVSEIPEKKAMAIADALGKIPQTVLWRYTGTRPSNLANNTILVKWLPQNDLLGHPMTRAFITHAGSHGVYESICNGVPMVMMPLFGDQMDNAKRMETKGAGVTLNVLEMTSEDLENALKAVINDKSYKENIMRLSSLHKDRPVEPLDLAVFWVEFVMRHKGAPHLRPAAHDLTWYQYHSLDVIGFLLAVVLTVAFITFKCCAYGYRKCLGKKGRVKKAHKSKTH
# EXPERIMENTAL_PROTOCOL: Inhibition of recombinant UGT-catalyzed 4-MU glucuronidation
# Type: biochemical
# CONDITION: pH 7.4, probe 4-methylumbelliferone (4-MU), 110 μM, 100 μM compound, 4-MU probe substrate, negative = activation
ASSAY_READOUT: inhibition at 30 min, 100 µM (%)
Please reply with the bare figure in % and do not write the unit itself.

Query: # return recorded inhibition at 30 min, 100 µM for input O=c1c2cc(O)c(O)cc2oc2cc(O)cc(O)c12 [NTR, 1,3,6,7-tetrahydroxyxanthone]
Result: 46.2

Query: Indicate the recorded inhibition at 30 min, 100 µM value for this compound: O=c1c2cc(O)c(O)cc2oc2cc(O)c([C@@H]3O[C@H](CO)[C@@H](O)[C@H](O)[C@H]3O)c(O)c12
Result: 11.2

====

# TGT: UGT1A7 (Homo sapiens)
# Construct: purchased BD Gentest Corp. (Woburn, MA, USA); host or cells: baculovirus-infected insect cells
# Sequence (Q9HAW7 26-530): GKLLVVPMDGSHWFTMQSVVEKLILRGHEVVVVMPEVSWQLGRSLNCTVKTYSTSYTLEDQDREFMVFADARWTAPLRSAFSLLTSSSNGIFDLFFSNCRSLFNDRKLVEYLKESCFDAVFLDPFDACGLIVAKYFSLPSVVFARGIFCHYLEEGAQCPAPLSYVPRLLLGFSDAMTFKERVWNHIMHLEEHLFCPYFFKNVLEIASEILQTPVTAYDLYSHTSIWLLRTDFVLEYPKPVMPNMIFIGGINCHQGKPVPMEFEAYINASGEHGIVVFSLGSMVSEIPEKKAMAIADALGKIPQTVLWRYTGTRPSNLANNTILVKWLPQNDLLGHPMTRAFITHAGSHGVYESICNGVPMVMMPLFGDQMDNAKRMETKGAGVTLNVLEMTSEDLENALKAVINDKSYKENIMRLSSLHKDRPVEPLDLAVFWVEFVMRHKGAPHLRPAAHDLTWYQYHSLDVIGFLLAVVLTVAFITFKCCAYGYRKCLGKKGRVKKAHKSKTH
# EXPERIMENTAL_PROTOCOL: Inhibition of recombinant UGT-catalyzed 4-MU glucuronidation
# Type: biochemical
# CONDITION: second plot of Lineweaver-Burk slopes; read-out: inhibition constant (Ki) towards UGT1A7
ASSAY_READOUT: Ki (µM)
Give a bare numeral; the unit µM is implied.

Query: Specify measured Ki for O=c1c2cc(O)c(O)cc2oc2cc(O)cc(O)c12 [NTR, 1,3,6,7-tetrahydroxyxanthone] .
Result: 2
